molecular target: C. albicans CYP51F1 R467K mutant (Candida albicans, UniProt P10613, R467K); experiment: Spectral binding titration of purified CYP51F1 R467K mutant

| Compound | Display unit | Kd |
| --- | --- | --- |
| OC(Cn1cncn1)(Cn1cncn1)c1ccc(F)cc1F [Fluconazole, fluconazole] | µM | 0.06 |
| Clc1ccc(COC(Cn2ccnc2)c2ccc(Cl)cc2Cl)cc1 (stereo not shown) [Econazole, econazole] | µM | 0.13 |
| CCC(C)n1ncn(-c2ccc(N3CCN(c4ccc(OCC5COC(Cn6cncn6)(c6ccc(Cl)cc6Cl)O5)cc4)CC3)cc2)c1=O (stereo not shown) [Itraconazole, itraconazole] | µM | 0.18 |
| CC(=O)N1CCN(c2ccc(OCC3COC(Cn4ccnc4)(c4ccc(Cl)cc4Cl)O3)cc2)CC1 (stereo not shown) [Ketoconazole, ketoconazole] | µM | 0.66 |
